Origin of the recorded values: patent US12612358B2

TESTED ON: ADRB2 (β-Adrenergic receptor) (Homo sapiens, UniProt P07550)
Sequence (P07550 whole entry): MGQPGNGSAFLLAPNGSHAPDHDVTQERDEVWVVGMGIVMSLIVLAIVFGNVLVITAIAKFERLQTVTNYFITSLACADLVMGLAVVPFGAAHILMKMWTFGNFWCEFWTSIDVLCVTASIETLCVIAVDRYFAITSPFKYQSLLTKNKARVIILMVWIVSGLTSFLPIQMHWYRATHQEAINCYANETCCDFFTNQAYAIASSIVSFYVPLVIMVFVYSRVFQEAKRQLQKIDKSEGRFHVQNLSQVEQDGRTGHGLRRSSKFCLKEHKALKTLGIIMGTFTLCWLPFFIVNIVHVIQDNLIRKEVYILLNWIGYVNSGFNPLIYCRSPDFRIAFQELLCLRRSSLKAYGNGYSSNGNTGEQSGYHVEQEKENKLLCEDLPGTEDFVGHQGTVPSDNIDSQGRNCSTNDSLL
REPORTED ENDPOINT: IC50

Inquiry: What reported IC50 corresponds to `CCCCCCC(C)(C)c1cc(O)c(C(=O)Nc2ccccc2)c(O)c1` on ADRB2 (β-Adrenergic receptor) (Homo sapiens, UniProt P07550)?
Reply text: 640 to 750 nM

* * *

System: U251 (glioblastoma)
ASSAY OVERVIEW: Cell proliferation, U251 glioblastoma cells
Type: cell-based
EXPERIMENTAL PARAMETERS: Homo sapiens, U-251, read-out: IC50 category
pIC50: −log10 of the molar value.
REPORTED ENDPOINT: pIC50

Inquiry: Given the entry `CCCCCCC(C)(C)c1cc(O)c(C(=O)Nc2ccccc2)c(O)c1` , report its measured pIC50.
Reply text: > 6.30
